Kindly state cell viability for each of the entries shown.
test system: NOMO1; assay: cell viability relative to DMSO control; higher = less cytotoxic; details: HPLM + 10% dialyzed FBS; 48 h; 1.71 µM
One number for each entry, in %.

A selection of reference data follows.
NC(=O)[C@H]1CCS[C@@H]2C[C@]3(CCCN3C(=O)Cc3ccc(NC(=O)COc4ccc(Cl)cc4Cl)cc3)C(=O)N12	36.8
N[S+](=O)([O-])c1cc2c(cc1Cl)NC(C(Cl)Cl)N[S+]2(=O)[O-] (stereo not given)	130
Cc1nc2cc(C(=O)N3CCC4(CC3)CC(=O)c3c(cnn3C(C)C)C4)ccc2[nH]1	119
CCC(C)N1\N=C/N(C1=O)C2=CC=C(C=C2)N3CCN(CC3)C4=CC=C(OC[C@H]5CO[C@@](C[N]6C=NC=N6)(O5)C7=CC=C(Cl)C=C7Cl)C=C4 (stereo not given in full)	102
Cc1nn(C)c(COc2ccc(N3CCN([S+](=O)([O-])N(C)C)CC3)cc2)c1-c1cccc2c(CCCOc3cccc4ccccc34)c(C(=O)O)n(CCN3CCOCC3)c12	101
c1ccc2c(Cc3c[nH]c4ccccc34)c[nH]c2c1	89.7
C=C1C(=O)OC(CCCCCCCC)C1C(=O)O (stereo not given)	125
Cc1ccccc1C(OCCN(C)C)c1ccccc1 (stereo not given)	122
COc1ccc(C(=O)c2c(C)n(CCN3CCOCC3)c3ccccc23)cc1	104
CC(C)N(C[C@H]1O[C@@H](n2cnc3c(N)ncnc32)[C@H](O)[C@@H]1O)[C@H]1C[C@@H](CCc2nc3cc(C(C)(C)C)ccc3[nH]2)C1	79.3

The following compounds each have a reported value; give each one's cell viability.
1. O=C1CCC[C@@H]2[C@H]3CCCN4CCC[C@@H](CN12)[C@@H]34
2. NC[C@@H]1O[C@H](O[C@H]2[C@@H](O)[C@H](O[C@@H]3[C@@H](O)[C@H](N)C[C@H](N)[C@H]3O[C@H]3O[C@H](CN)[C@@H](O)[C@H](O)[C@H]3N)O[C@@H]2CO)[C@H](N)[C@@H](O)[C@@H]1O.O=S(=O)(O)O.O=S(=O)(O)O.O=S(=O)(O)O
3. O=[N+]([O-])c1ncc[nH]1
4. CC(C)(S)[C@@H](N)C(=O)O
5. O=C1\C=C/C=C2/[C@H]3CNC[C@H](C3)CN12
6. CC(C)(F)C[C@H](N[C@@H](c1ccc(-c2ccc([S+](C)(=O)[O-])cc2)cc1)C(F)(F)F)C(=O)NC1(C#N)CC1
7. CCCC(C)(COC(N)=O)COC(=O)NC(C)C (stereo not given)
8. CCn1c(-c2nonc2N)nc2c(C#CC(C)(C)O)ncc(OC[C@H]3CCCNC3)c21

Reply text:
93.2
106
89.4
133
129
116
130
61.7
